This section presents binders with their documented LD50, Colo205 cells, 48 h, with goat anti-human IgG cross-linker values.
study system: human TRAIL-R2 on the surface of cells (Colo205, U251, Jurkat, normal human hepatocytes) (human, UniProt O14763 56-440)
method notes: cell-based or functional assay
measure name: LD50, Colo205 cells, 48 h, with goat anti-human IgG cross-linker (µg/mL)

INSERT INTO assay_data (binder, uom, readout_value) VALUES
  ('human anti-TRAIL-R2 monoclonal antibody KMTR1 (antibody, IgG1, V domains shown, IgG1, human kappa light chain) VH: EVQLLESGGGLVQPGRSLRLSCAASGFTFSSYAMSWVRQAPGKGLEWVSAISGSGGSRYYADSVKGRFTISRDNSKNTLYLQMNSLRAEDTAVYYCAKESSGWFGAFDYWGQGTLVTVSS VL: EIVLTQSPDFQSVTPKEKVTITCRASQSIGSSLHWYQQKPDQSPKLLIKYASQSFSGVPSRFSGSGSGTDFTLTINSLEAEDAAAYYCHQSSSLPITFGQGTRLEIK', 'µg/mL', 0.04),
  ('human anti-TRAIL-R2 monoclonal antibody L-30-10 (antibody, IgG1, V domains shown, Hybridoma FERM BP-7700 / BP-7769) VH: QLQLQESGPGLVKPSETLSLTCTVSGGSISSRSNYWGWIRQPPGKGLEWIGNVYYRGSTYYNSSLKSRVTISVDTSKNQFSLKLSSVTVADTAVYYCARLSVAEFDYWGQGILVTVSS VL: EIVLTQSPATLSLSPGERATLSCRASQSVSSFLAWYQQKPGQAPRLLIYDASNRATGSPARFSGSGSGTDFTLTISSLEPEDFAVYYCQQRSDWPLTFGPGTKVDIK', 'µg/mL', 0.1),
  ('human anti-TRAIL-R2 monoclonal antibody 0304 (from the hybridoma) (antibody, IgG4, V domains shown, IgG4, human kappa light chain) VH: QVQLVQSGAEMKKPGASVKVSCKTSGYTFTNYKINWVRQAPGQGLEWMGWMNPDTDSTGYPQKFQGRVTMTRNTSISTAYMELSSLRSEDTAVYYCARSYGSGSYYRDYYYGMDVWGQGTTVTVSS VL: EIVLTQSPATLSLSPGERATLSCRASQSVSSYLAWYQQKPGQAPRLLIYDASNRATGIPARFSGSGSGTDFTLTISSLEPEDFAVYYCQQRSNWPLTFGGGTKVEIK', 'µg/mL', 0.02),
  ('human anti-TRAIL-R2 monoclonal antibody E-11-13 (antibody, IgG1, V domains shown, Hybridoma FERM BP-7698 / BP-7770; also called E-11-3) VH: QLQLQESGPGLVKPSETLSLTCTVSGGSIISKSSYWGWIRQPPGKGLEWIGSIYYSGSTFYNPSLKSRVTISVDTSKNQFSLKLSSVTAADTAVYYCARLTVAEFDYWGQGTLVTVSS VL: EIVLTQSPATLSLSPGERATLSCRASQSVSSFLAWYQQKPGQAPRLLIYDASNRATGIPARFSGSGSGTDFTLTISSLEPEDFAVYYCQQRSNWPLTFGPGTKVDIK', 'µg/mL', 0.11);
